From: patent US20230366033A1

target: T1, GRB2-SH2 domain, purified, Atto488-labelled (UniProt P62993 60-152, limits assumed, Atto488 label); assay: MST; 100 nM Atto488-labelled GRB2-SH2 domain, peptide titrated; unphosphorylated MRE11 peptide
T1 construct: domain: SH2; Individual GRB2 domains generated as described before (Ahmed et al., 2010)
T1 sequence (P62993 60-152 limits assumed): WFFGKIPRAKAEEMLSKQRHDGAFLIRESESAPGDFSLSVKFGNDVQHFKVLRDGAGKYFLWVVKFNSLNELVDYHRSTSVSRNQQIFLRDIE

Binder	Unit spec	Kd
WVNYQDGNLN [MRE11 peptide WVNYQDGNLN]	µM	33
